The measured values listed here are drawn from PubChem BioAssay (NCI).

Measured TGI, listed per entry for reference.
Test system: U251 CNS
Assay: NCI tumour cell line growth inhibition, 48 h
measured endpoint: TGI

{"molecule": "COC(=O)C(=O)C(C(=O)C(=O)Nc1nc(=S)[nH][nH]1)c1nc2ccc([N+](=O)[O-])cc2[nH]c1=O (stereo not given)", "target": "U251 CNS", "result": "> 100 µM"}
{"molecule": "Nc1ncnc2c1ncn2COC/C=C/I", "target": "U251 CNS", "result": "> 100 µM"}
{"molecule": "COc1ccc(-c2cc3c(N)ncnc3o2)cc1", "target": "U251 CNS", "result": "> 25 µM"}
{"molecule": "CC(C)CC1NC(=O)C(C(C)C)NC(=O)CC(C)COC(=O)C(CC(C)C)N(C)C(=O)C(C(C)C)NC(=O)C(C(C)C)OC1=O (stereo not given)", "target": "U251 CNS", "result": "> 50 µM"}
{"molecule": "Cc1ccc(C)c(C(=N)c2ccccc2Cc2ccccc2)c1", "target": "U251 CNS", "result": "30.4 µM"}
{"molecule": "COc1cc2c3c(n(CCCN4CCN(CCO)CC4)c(=O)c2cc1OC)-c1cc2c(cc1C3=O)OCO2", "target": "U251 CNS", "result": "> 48.6 µM"}
{"molecule": "NC1=CN(Cc2ccccc2)C2=N/C(=C\\c3ccco3)C(=O)N12", "target": "U251 CNS", "result": "> 100 µM"}
{"molecule": "COc1cc(OC)cc(Oc2nc3c(N)cc(C(F)(F)F)cc3nc2-c2ccccc2)c1", "target": "U251 CNS", "result": "> 100 µM"}
{"molecule": "CC(=O)N1CCN(C=S)CC1", "target": "U251 CNS", "result": "> 100 µM"}
{"molecule": "O=C1/C(=C/c2cccc(F)c2)CN(C(=O)C(Cl)Cl)C/C1=C\\c1cccc(F)c1", "target": "U251 CNS", "result": "0.294 µM"}
